Data credit: patent US20160159924A1

molecular target: T1, recombinant human sc-uPA (human, UniProt P00749 21-431); experiment: SPR, mAb immobilised
T1 construct: 411 amino acid single-chain zymogen expressed in HEK293; the 20-residue signal peptide is not present in the mature protein; also called human single-chain uPA; pro-uPA
Measured Endpoint: Kd (nM)
Quick note: give the figure in nM, leave out the unit.

• rec0266-0000-0010-VL_S91Y (antibody, mouse IgG1, name in Kabat numbering, V domains shown) VH: DVKLVESGGGLVKPGGSLKLSCVASGFTFSSYTMSWVRQTPEKRLEWVATISGGGSHIYYADSVKGRFTISRDNAKNTLYLQMSSLKSEDTAIYYCTRDGRDGSWFAYWGQGTLVTVSA VL: DIVMTQSPATLSVTPGDRVSLSCRTSQSIGDYLHWYQQKSHESPRLLIKYVSQSISGIPSRFSGSGSGSDFTLSINSVESEDVGVYYCQNYHSFPLTFGSGTKLELKR = 3.6
• rec0266-0000-0010-VL_S91T (antibody, mouse IgG1, name in Kabat numbering, V domains shown) VH: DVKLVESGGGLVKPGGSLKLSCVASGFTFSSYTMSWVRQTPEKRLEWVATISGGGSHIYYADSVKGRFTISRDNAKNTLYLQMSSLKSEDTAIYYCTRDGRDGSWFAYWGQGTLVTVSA VL: DIVMTQSPATLSVTPGDRVSLSCRTSQSIGDYLHWYQQKSHESPRLLIKYVSQSISGIPSRFSGSGSGSDFTLSINSVESEDVGVYYCQNTHSFPLTFGSGTKLELKR = 0.88

Moving on to the next binder.
// query Kd value for entry rec0266-0000-0010-VL_S91Q (antibody, mouse IgG1, name in Kabat numbering, V domains shown) VH: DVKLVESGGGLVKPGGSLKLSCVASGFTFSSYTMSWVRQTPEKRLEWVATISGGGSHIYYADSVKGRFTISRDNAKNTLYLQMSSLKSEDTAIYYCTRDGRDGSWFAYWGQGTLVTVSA VL: DIVMTQSPATLSVTPGDRVSLSCRTSQSIGDYLHWYQQKSHESPRLLIKYVSQSISGIPSRFSGSGSGSDFTLSINSVESEDVGVYYCQNQHSFPLTFGSGTKLELKR
2.2
